Test system: matriptase (MT-SP1), human protease domain (human, UniProt Q9Y5Y6)
Sequence (Q9Y5Y6 615-855): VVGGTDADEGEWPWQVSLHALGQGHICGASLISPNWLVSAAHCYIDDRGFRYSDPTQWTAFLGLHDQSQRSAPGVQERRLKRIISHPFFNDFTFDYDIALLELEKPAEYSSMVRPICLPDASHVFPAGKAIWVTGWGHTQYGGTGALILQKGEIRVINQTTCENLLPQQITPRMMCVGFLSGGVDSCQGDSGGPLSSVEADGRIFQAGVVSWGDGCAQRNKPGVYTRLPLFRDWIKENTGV
Assay protocol: steady-state enzyme inhibition kinetics
Please provide measured pKi for the entries that follow.
Quick note: pKi means taking -log10 of the concentration in moles per liter.

pKi lookup needed for Fab S4 (Fab, V domains shown) VH: EVQLVQSGAEVKKPGSSVKVSCKASGGTFSSYAISWVRQAGQGLEWMGGIIPIFGTANYAQKFQGRVTITADESTSTAYMELSSLRSEDTAVYYCARTFHIRRYRSGYYDKMDHWGQGTLVTVSS VL: VLTQPPSVSGAPGQRVTISCSGSSSNIGSNYVSWYQQKPGTAPKLLIYDNNQRPSGVPDRFSGSKSGTSAVLAITGLQSEDEADYYCQSRDISQYVFGGGTKLTVL , thanks.
9.00

What value of pKi has been recorded for this entry: Fab A11 H R100bA (Fab, V domains shown) VH: EVQLVQSGGGLVKPGGSLRLSCAASGFTFSSYAMSWVRQAPGKGLEWVSAISGSGGSTYYADSVKGRFTISRDNSKNTLYLQMSSLRAEDTAVYYCVKDLGIAARAFVSGAFDIWGQGTMVTVSS VL: EIVLTQSPGTLSLSPGERATLSCRASQSVSSSYLAWYQQKPGQAPRLLIYGASTRATGIPARFSGSGSGTDFTLTINSLEPEDFAVYYCQQRSNWPPGYTFGQGTKVEIT
6.74

What does the record list as pKi for Fab S4 H R100bA (Fab, V domains shown) VH: EVQLVQSGAEVKKPGSSVKVSCKASGGTFSSYAISWVRQAGQGLEWMGGIIPIFGTANYAQKFQGRVTITADESTSTAYMELSSLRSEDTAVYYCARTFHIRRYASGYYDKMDHWGQGTLVTVSS VL: VLTQPPSVSGAPGQRVTISCSGSSSNIGSNYVSWYQQKPGTAPKLLIYDNNQRPSGVPDRFSGSKSGTSAVLAITGLQSEDEADYYCQSRDISQYVFGGGTKLTVL ?
7.03

Origin of values: paper PMC3268006
